Reference source for all entries: patent US4988699A

- Tested on: locomotor activity in mice
- method-notes: Inhibition of locomotor activity in mice
- Assay type: in vivo
- condition-label: Mus musculus, ip, mice, IP; read-out: Inhibition of Locomotor Activity in Mice ED50

>  <molecule>
Nc1nc2c(s1)CC(N1CCN(c3ccccc3)CC1)CC2 (racemic) [Example 1b]

>  <ED50>
6.1 mg/kg

$$$$
>  <molecule>
O=C(Nc1nc2c(s1)CC(N1CCN(c3ccccn3)CC1)CC2)c1ccccc1 (racemic) [Example 2]

>  <ED50>
3.7 mg/kg

$$$$
>  <molecule>
Nc1nc2c(s1)CC(CCN1CCN(c3ccccn3)CC1)CC2 (single isomer, unassigned; (-)) [Example 11a]

>  <ED50>
0.2 mg/kg

$$$$
>  <molecule>
Nc1nc2c(s1)CC(CCN1CCN(c3ccccn3)CC1)CC2 (racemic) [Example 9]

>  <ED50>
0.21 mg/kg

$$$$
>  <molecule>
Nc1nc2c(s1)CC(N1CCN(c3ccccn3)CC1)CC2 (racemic) [Example 1]

>  <ED50>
6.6 mg/kg

$$$$
>  <molecule>
Nc1nc2c(s1)CC(N1CCN(c3ccccn3)CC1)CC2 (single isomer, unassigned; (+)) [Example 3]

>  <ED50>
9.9 mg/kg

$$$$
>  <molecule>
c1ccc(N2CCN(CC3CCc4ncsc4C3)CC2)nc1 (racemic) [Example 5]

>  <ED50>
7.4 mg/kg

$$$$
>  <molecule>
Nc1nc2c(s1)CC(N1CCN(c3ncccn3)CC1)CC2 (racemic) [Example 1c]

>  <ED50>
30 mg/kg

$$$$
>  <molecule>
Nc1nc2c(s1)CC(CN1CCN(c3ccccn3)CC1)CC2 (racemic) [Example 7]

>  <ED50>
7.2 mg/kg

$$$$
